Values from the supplement of paper PMC9337992

system: SUM149-PT; experiment: cell proliferation (confluence) relative to DMSO control; higher = less growth inhibition; conditions: 5 uM; 6 d
# label = TRUE if cell proliferation >= 60% else FALSE

Please review the following examples before continuing.
CCCOc1ccn2c(C(C)=O)cc(-c3ccccc3S(C)(=O)=O)c2c1 :: TRUE
CCOC(=O)CCNc1cc(N2CCc3ccccc3CC2)nc(-c2cccnc2)n1 :: TRUE
CCn1cc(-c2cccc(C(F)(F)F)c2)c2sc(C(=N)NC3CCS(=O)(=O)CC3)cc2c1=O :: FALSE

Kindly consider the entry below.
Hello, I need to know if CN(C)[C@H]1CN(C2CCc3cccc(F)c32)C[C@@H]1c1ccc(N2CCN(S(C)(=O)=O)CC2)cc1 (stereo not given in full) has measured cell proliferation not below 60%. Thanks!
TRUE
